Data provenance: paper PMC6602958

Assay: Protein-binding capacity in silkworm hemolymph (filter unit, HPLC)
measured_parameter: fraction unbound at 10 min, 10 µM

INPUT: I would be grateful if you could share the reported fraction unbound at 10 min, 10 µM for CC(=O)N1CCN(c2ccc(OCC3COC(Cn4ccnc4)(c4ccc(Cl)cc4Cl)O3)cc2)CC1 (stereo not shown) .
OUTPUT: < 0.01

----------
Experiment: Pharmacokinetics of antibiotics in silkworm hemolymph after injection (HPLC)
Conditions: 90 min after injection; raw data of Fig. 1
*1 amine or outer side, *2 acyl side, *3 side chain or, on linkers, in order; H or OH if unused. Where a SMILES comes first, the peptide text is derived from it. Bridges are numbered along the chain shown (N, C = ends). [ ]: non-standard residue; d: D form. The star is where a group is joined. hTyr(3S-OH,4S-OH,3'-OSO3H) = N[C@H](C(=O)O)[C@H](O)[C@@H](O)c1ccc(O)c(OS(=O)(=O)O)c1; Orn(4R-OH,5R-OH) = O=C([C@H](C[C@@H](O)[C@@H](O)N[*:3])N[*:1])[*:2]; Pro(3S-OH,4S-Me) = C[C@H]1CN[C@H](C(=O)O)[C@H]1O; X1 = CCCCCOc1ccc(-c2cc(-c3ccc(C(=O)*)cc3)no2)cc1; Gln(3R-OH) = NC(=O)C[C@@H](O)[C@H](N)C(=O)O; Hyp = O=C(O)[C@@H]1C[C@@H](O)CN1
measured_parameter: HPLC peak area in hemolymph
Answer field: number only, no words.

compound=CN[C@H](CC(C)C)C(=O)N[C@H]1C(=O)N[C@@H](CC(N)=O)C(=O)N[C@H]2C(=O)N[C@H]3C(=O)N[C@H](C(=O)N[C@H](C(=O)O)c4cc(O)cc(O)c4-c4cc3ccc4O)[C@H](O)c3ccc(c(Cl)c3)Oc3cc2cc(c3O[C@@H]2O[C@H](CO)[C@@H](O)[C@H](O)[C@H]2O[C@H]2C[C@](C)(N)[C@H](O)[C@H](C)O2)Oc2ccc(cc2Cl)[C@H]1O measured_parameter="HPLC peak area in hemolymph" reading=3764336
compound="CCCCCOc1ccc(-c2cc(-c3ccc(C(=O)N[C@H]4C[C@@H](O)[C@@H](O)NC(=O)[C@@H]5[C@@H](O)[C@@H](C)CN5C(=O)[C@H]([C@H](O)CC(N)=O)NC(=O)[C@H]([C@H](O)[C@@H](O)c5ccc(O)c(OS(=O)(=O)O)c5)NC(=O)[C@@H]5C[C@@H](O)CN5C(=O)[C@H]([C@@H](C)O)NC4=O)cc3)no2)cc1 [Micafungin] (X1-[Orn(4R-OH,5R-OH)]T[Hyp][hTyr(3S-OH,4S-OH,3'-OSO3H)][Gln(3R-OH)][Pro(3S-OH,4S-Me)]; lactam 1-C)" measured_parameter="HPLC peak area in hemolymph" reading=1117482
compound=CN(C)[C@@H]1C(O)=C(C(N)=O)C(=O)[C@@]2(O)C(O)=C3C(=O)c4c(O)cccc4[C@@](C)(O)[C@H]3C[C@@H]12 measured_parameter="HPLC peak area in hemolymph" reading=1941121

Now turn to the next compound.
INPUT: GET /values?readout=HPLC peak area in hemolymph&item= CO[C@H]1/C=C/O[C@@]2(C)Oc3c(C)c(O)c4c(O)c(c(/C=N/N5CCN(C)CC5)c(O)c4c3C2=O)NC(=O)/C(C)=C\C=C\[C@H](C)[C@H](O)[C@@H](C)[C@@H](O)[C@@H](C)[C@H](OC(C)=O)[C@@H]1C
OUTPUT: 59307
